- measurementTarget: T1, RASAL2 (peptide code RASAL2-002) peptide on HLA-A*02:01 (human)
- T1 peptide: SVLEPVISV
- experimentSummary: cytokine release
measurementKind: binding result

binder="R42P3A9 (TCR, V domains shown) Valpha: GIQVEQSPPDLILQEGANSTLRCNFSDSVNNLQWFHQNPWGQLINLFYIPSGTKQNGRLSATTVATERYSLLYISSSQTTDSGVYFCAVHNFNKFYFGSGTKLNVKP Vbeta: AAGVIQSPRHLIKEKRETATLKCYPIPRHDTVYWYQQGPGQDPQFLISFYEKMQSDKGSIPDRFSAQQFSDYHSELNMSSLELGDSALYFCASSLLGQGYNEQFFGPGTRLTVL" measurementkind="binding result" datavalue="no recognition"
binder="R37P1H1 (TCR, V domains shown) Valpha: AQTVTQSQPEMSVQEAETVTLSCTYDTSESNYYLFWYKQPPSRQMILVIRQEAYKQQNATENRFSVNFQKAAKSFSLKISDSQLGDTAMYFCAFGYSGGGADGLTFGKGTHLIIQP Vbeta: DAGVTQSPTHLIKTRGQQVTLRCSPKSGHDTVSWYQQALGQGPQFIFQYYEEEERQRGNFPDRFSGHQFPNYSSELNVNALLLGDSALYLCASSNEGQGWEAEAFFGQGTRLTVV" measurementkind="binding result" datavalue="no recognition"
binder="R26P2A6 (TCR, V domains shown) Valpha: QKEVEQDPGPLSVPEGAIVSLNCTYSNSAFQYFMWYRQYSRKGPELLMYTYSSGNKEDGRFTAQVDKSSKYISLFIRDSQPSDSATYLCAMSDVSGGYNKLIFGAGTRLAVHP Vbeta: EAQVTQNPRYLITVTGKKLTVTCSQNMNHEYMSWYRQDPGLGLRQIYYSMNVEVTDKGDVPEGYKVSRKEKRNFPLILESPSPNQTSLYFCASTTPDGTDEQFFGPGTRLTVL" measurementkind="binding result" datavalue="no recognition"

Origin of values: patent US20190321478A1
